- System: MTT (mouse pheochromocytoma)
- Assay protocol: IC50 of cell viability (ATP content)
- Settings: (24 or 48 h)
Counter-ions that a name gives are not always drawn.

{"Compound": "C[S+](=O)([O-])c1ccc([C@@H](O)[C@@H](COC(=O)CN)NC(=O)C(Cl)Cl)cc1 [THIAMPHENICOL AMINOACETATE HYDROCHLORIDE]", "IC50 of cell viability": "> 46 µM"}
{"Compound": "CCN1CCCC1CNC(=O)c1cc([S+](=O)([O-])CC)c(N)cc1OC (stereo not drawn) [Amisulpride]", "IC50 of cell viability": "> 46 µM"}
{"Compound": "C[C@]12CC[C@@H]3c4ccc(O)cc4C[C@@H](CCCCCCCCC[S+]([O-])CCCC(F)(F)C(F)(F)F)C3[C@@H]1CC[C@@H]2O (stereo partly drawn) [Fulvestrant]", "IC50 of cell viability": "> 46 µM"}
{"Compound": "C=CCN1CCC23c4c5ccc(O)c4O[C@H]2C(=O)CC[C@@]3(O)C1C5 (stereo partly drawn) [NALOXONE]", "IC50 of cell viability": "> 46 µM"}
{"Compound": "CCC(=O)[O-] [Propionic acid]", "IC50 of cell viability": "> 46 µM"}
{"Compound": "CC(CCc1ccc(O)cc1)NCCc1ccc(O)c(O)c1 (stereo not drawn) [DOBUTAMINE]", "IC50 of cell viability": "> 46 µM"}
{"Compound": "N#CC1(N2CCCCC2)CCCCC1 [1-PIPERIDINOCYCLOHEXANECARBONITRILE]", "IC50 of cell viability": "> 46 µM"}
{"Compound": "Cc1c(I)c(=O)n(-c2ccccc2)n1C [IODOANTIPYRINE]", "IC50 of cell viability": "> 46 µM"}

* * *

- System: MTT (mouse pheochromocytoma)
- Assay protocol: efficacy (maximal response) relative to doxorubicin = -100% and DMSO = 0%; higher = less inhibition of viability
- Settings: (24 or 48 h)
Counter-ions that a name gives are not always drawn.
Threshold rule: efficacy greater than or equal to -60% is rule met; below that, rule not met.

{"Molecule": "COC(=O)Nc1nc2cc(C(=O)c3ccccc3)ccc2[nH]1", "Cat": "rule met"}
{"Molecule": "O=C(Nc1ccc(Cl)cc1)Nc1ccc(Cl)c(Cl)c1", "Cat": "rule not met"}
{"Molecule": "C/C(=C(/CCOC(=O)C(C)C)SS/C(CCOC(=O)C(C)C)=C(\\C)N(C=O)Cc1cnc(C)nc1N)N(C=O)Cc1cnc(C)nc1N", "Cat": "rule met"}
{"Molecule": "O=C(CCCCCCC(=O)Nc1ccccc1)NO [Suberoylanilide Hydroxamic Acid]", "Cat": "rule met"}
{"Molecule": "CC(=O)[O][Hg][c]1ccccc1 [PHENYLMERCURIC ACETATE]", "Cat": "rule not met"}
{"Molecule": "CCN1/C(=C/C=C/C=C/c2sc3ccccc3[n+]2CC)Sc2ccccc21 [DITHIAZANINE IODIDE]", "Cat": "rule not met"}
{"Molecule": "Cc1cc(O)c2c3c4c(cc(O)c13)C(C)(C)C(=O)c1c(O)cc(O)c(c1-4)C2=O", "Cat": "rule met"}
{"Molecule": "CC(C)(Cc1c[nH]c2ccccc12)NCC(O)COc1ccccc1C#N (stereo not given)", "Cat": "rule met"}
{"Molecule": "c1ccc2[nH]c(-c3cscn3)nc2c1", "Cat": "rule met"}
{"Molecule": "C[C@@H]1CN(CCCn2c3ccccc3c3ccccc32)C[C@H](C)N1 [Rimcazole dihydrochloride]", "Cat": "rule not met"}
{"Molecule": "CNC(=O)c1cc(Oc2ccc(NC(=O)Nc3ccc(Cl)c(C(F)(F)F)c3)cc2)ccn1 [SORAFENIB TOSYLATE]", "Cat": "rule met"}
{"Molecule": "C[C@@]12C(=O)OC(=O)[C@@]1(C)[C@H]1CC[C@H]2O1", "Cat": "rule met"}
{"Molecule": "CC(=O)C1(O)Cc2c(O)c3c(c(O)c2C(OC2CC(N)C(O)C(C)O2)C1)C(=O)c1c(O)cccc1C3=O (stereo not given)", "Cat": "rule met"}
{"Molecule": "C[n+]1c2cc(N)ccc2cc2ccc(N)cc21.[Cl-] [ACRIFLAVINIUM HYDROCHLORIDE]", "Cat": "rule met"}

* * *

- Test system: MTT (mouse pheochromocytoma)
- Assay protocol: efficacy (maximal response) relative to doxorubicin = -100% and DMSO = 0%; higher = less inhibition of viability
- Settings: (24 or 48 h)
Structures can show the parent of a compound that is named as a salt.
We use -50% as the dividing line for efficacy: on or above the line is met, below is not met.

{"Compound": "O=C(CCCCCCC(=O)Nc1ccccc1)NO [SUBEROYLANILIDE HYDROXAMIC ACID]", "Cat": "not met"}
{"Compound": "Cc1ccc2c(c1)c1c3n2CCNC3CCC1 (centres undefined) [Pirlindole mesylate]", "Cat": "met"}
{"Compound": "CCc1nc(N)nc(N)c1-c1ccc(Cl)cc1", "Cat": "met"}
{"Compound": "COc1cc(-c2ccc(-[n+]3nc(-c4ccccc4)nn3-c3ccc([N+](=O)[O-])cc3)c(OC)c2)ccc1-[n+]1nc(-c2ccccc2)nn1-c1ccc([N+](=O)[O-])cc1 [NITROBLUE TETRAZOLIUM CHLORIDE]", "Cat": "not met"}
{"Compound": "CC[n+]1c(-c2ccccc2)c2cc(N)ccc2c2ccc(N)cc21.[Br-] [HOMIDIUM BROMIDE]", "Cat": "met"}
{"Compound": "[Hg+2] [Mercuric chloride]", "Cat": "not met"}
{"Compound": "O=C(Nc1ccc([N+](=O)[O-])cc1)Nc1ccc([N+](=O)[O-])cc1", "Cat": "met"}
{"Compound": "C=CCNC1=C2C[C@@H](C)C[C@H](OC)[C@H](O)[C@@H](C)/C=C(\\C)[C@H](OC(N)=O)[C@@H](OC)C=C/C=C(\\C)C(=O)NC(=CC1=O)C2=O", "Cat": "not met"}
{"Compound": "COc1ccc2cc3[n+](cc2c1OC)CCc1cc2c(cc1-3)OCO2 [Berberine chloride]", "Cat": "not met"}
{"Compound": "O=[N+]([O-])C(Br)(CO)CO", "Cat": "not met"}
{"Compound": "CN(C)C1=CC=C(C=C1)C(=C2\\C=C/C(/C=C2)=[N+](/C)C)\\C3=C(O)C(=CC4=CC(=CC=C34)S([O-])(=O)=O)S([O-])(=O)=O", "Cat": "not met"}
{"Compound": "CC[C@@]1(O)C(=O)OC/C2=C1/C=C/3N(CC4=CC5=C(C=CC=C5[N+]([O-])=O)N=C34)C2=O", "Cat": "not met"}
{"Compound": "O=C(Nc1cccc(C(F)(F)F)c1)c1cc(Br)cc(Br)c1O", "Cat": "met"}
{"Compound": "CC(C)C[C@@H](NC(=O)[C@@H](Cc1ccccc1)NC(=O)c1cnccn1)B(O)O", "Cat": "not met"}
{"Compound": "C#C[C@]1(O)CC[C@H]2[C@@H]3CCc4cc(OC5CCCC5)ccc4[C@H]3CC[C@@]21C", "Cat": "not met"}
{"Compound": "CN(CCCN1c2ccccc2CCc2ccccc21)CC(=O)c1ccc(Cl)cc1 [LOFEPRAMINE HYDROCHLORIDE]", "Cat": "not met"}
{"Compound": "Cl.Nc1c2ccccc2nc2ccccc12.O [9-Aminoacridine HCl H2O]", "Cat": "not met"}
{"Compound": "COc1cc(NCCCC(C)N)c2ncccc2c1 (centres undefined)", "Cat": "not met"}
{"Compound": "CCCCCCCC[N+](C)(C)CCCCCCCC [Dioctyl Dimethyl Ammonium Chloride]", "Cat": "met"}
{"Compound": "COC(=O)C[C@](O)(CCCC(C)(C)O)C(=O)O[C@H]\\1[C@H]2C3=CC4=C(OCO4)C=C3CCN5CCC[C@]25\\C=C1OC", "Cat": "not met"}
{"Compound": "CN(C)C1=CC=C(C=C1)C(C2=CC=C(C=C2)N(C)C)=C/3\\C=C/C(/C=C3)=[N+](C)C", "Cat": "not met"}
{"Compound": "CCCCCCCCCCCCCCCC[N+](C)(C)Cc1ccccc1.O.[Cl-] [CETALKONIUM CHLORIDE]", "Cat": "not met"}
{"Compound": "C[n+]1cc2c3c(ccc2c2ccc4cc5c(cc4c21)OCO5)OCO3", "Cat": "not met"}
{"Compound": "Cc1cc(-c2ccc(/N=N/c3c(S(=O)(=O)[O-])cc4cc(S(=O)(=O)[O-])cc(N)c4c3O)c(C)c2)ccc1/N=N/c1c(S(=O)(=O)[O-])cc2cc(S(=O)(=O)[O-])cc(N)c2c1O", "Cat": "met"}
{"Compound": "C[N+]12CCCC[C@@H]1CCC(=C(c1cccs1)c1cccs1)C2 (some centres undefined) [TIQUIZIUM BROMIDE]", "Cat": "not met"}
{"Compound": "CN[C@H]1CC[C@@H](c2ccc(Cl)c(Cl)c2)c2ccccc21 [Sertraline hydrochloride (Zoloft)]", "Cat": "met"}
{"Compound": "CC/1=C/C(=O)N(O)/C(=C1)C2CCCCC2", "Cat": "not met"}
{"Compound": "CC(C)(C)CC(C)(C)c1ccc(OCCOCC[N+](C)(C)Cc2ccccc2)cc1 [Benzethonium chloride]", "Cat": "not met"}
